# Target or test system: wild-type eLtaS (Staphylococcus aureus, UniProt Q2G093)
# Construct: LtaS is a transmembrane protein with a large extracellular catalytic domain (denoted as eLtaS); His-tag; made in house; host or cells: E. coli (Rosetta; plasmid pProEX-eLtaS from strain ANG571)
# Sequence (Q2G093 218-646): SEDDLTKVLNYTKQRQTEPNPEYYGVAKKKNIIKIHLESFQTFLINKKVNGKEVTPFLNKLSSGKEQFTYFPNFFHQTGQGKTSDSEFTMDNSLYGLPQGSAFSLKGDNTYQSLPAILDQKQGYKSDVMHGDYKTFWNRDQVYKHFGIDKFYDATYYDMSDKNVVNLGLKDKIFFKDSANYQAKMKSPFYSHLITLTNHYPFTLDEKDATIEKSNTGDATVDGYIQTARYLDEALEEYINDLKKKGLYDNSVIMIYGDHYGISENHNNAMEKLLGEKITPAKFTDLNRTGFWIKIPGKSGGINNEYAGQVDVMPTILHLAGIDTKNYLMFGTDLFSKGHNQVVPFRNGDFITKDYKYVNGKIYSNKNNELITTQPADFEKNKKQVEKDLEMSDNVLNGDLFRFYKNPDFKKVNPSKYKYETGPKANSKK
# Test details: Isothermal titration calorimetry, wild-type eLtaS
# Assay type: binding, S. aureus
# Condition label: ITC, 25 °C, wild-type eLtaS titrated into 10 μM inhibitor
pKd: −log10 of the molar value.
Measure: pKd

1) O=C(COC(=O)Cc1coc2ccc3ccccc3c12)Nc1nnc(-c2ccccc2)o1    6.34
2) S=C(Nc1ccc(Cl)cc1)Nc1ccc(Sc2nc3ccccc3[nH]2)cc1    6.55
3) O=C(COC(=O)c1cn(-c2ccccc2)nc1-c1cccs1)Nc1nnc(-c2ccccc2)o1    6.44
